I'd appreciate it if you could supply Tmax values for the items below.
- assaySummary: PK parameters in male mice (Table 9)
- Format: in vivo
- particulars: PO 3 mg/kg
Answers are plain numbers, in h.

Please review the following examples before continuing.
{"compound": "CN(c1ccc(C#N)c(Cl)c1)[C@H]1CC[C@H](NC(=O)c2ccc(N3CCC(CN4CCN(c5ccc6c(c5)C(=O)N(C5CCC(=O)NC5=O)C6=O)CC4)CC3)cc2)CC1 (stereo partly shown)", "Tmax, h": 6.0}
{"compound": "N#Cc1ccc(O[C@H]2CC[C@H](NC(=O)c3ccc(N4CCC(N5CCN(c6ccc7c(c6)C(=O)N(C6CCC(=O)NC6=O)C7=O)CC5)CC4)cc3)CC2)cc1Cl (stereo partly shown)", "Tmax, h": 4.0}

Hi there! I need Tmax for each item below, if you can.
1. CN(c1ccc(C#N)c(Cl)c1)[C@H]1CC[C@H](NC(=O)c2ccc(N3CC(CN4CCN(c5ccc6c(c5)C(=O)N(C5CCC(=O)NC5=O)C6=O)CC4)C3)cc2)CC1 (stereo partly shown)
2. CN(c1ccc(C#N)c(Cl)c1)[C@H]1CC[C@H](NC(=O)c2ccc(N3CCN(C4CCN(c5ccc6c(c5)C(=O)N(C5CCC(=O)NC5=O)C6=O)CC4)CC3)cc2)CC1 (stereo partly shown)

Output line:
1: 4.0; 2: 4.7

###

Exercise: state measured AUC(0-t) for each of the compounds provided.
- assaySummary: PK parameters in male mice (Table 9)
- Type: in vivo
- particulars: PO 3 mg/kg
One number for each entry, in ng·h/mL.

Batch request: AUC(0-t) for each of the following compounds.
1. CN(c1ccc(C#N)c(Cl)c1)[C@H]1CC[C@H](NC(=O)c2ccc(N3CCC(N4CCN(c5ccc6c(c5)C(=O)N(C5CCC(=O)NC5=O)C6=O)CC4)CC3)cc2)CC1 (stereo partly shown)
2. CN(c1ccc(C#N)c(Cl)c1)[C@H]1CC[C@H](NC(=O)c2ccc(N3CCN(CC4CN(c5ccc6c(c5)C(=O)N(C5CCC(=O)NC5=O)C6=O)C4)CC3)cc2)CC1 (stereo partly shown)
3. CN(c1ccc(C#N)c(Cl)c1)[C@H]1CC[C@H](NC(=O)c2ccc(N3CCC(CN4CCN(c5ccc6c(c5)C(=O)N(C5CCC(=O)NC5=O)C6=O)CC4)CC3)cc2)CC1 (stereo partly shown)
4. N#Cc1ccc(O[C@H]2CC[C@H](NC(=O)c3ccc(N4CCC(N5CCN(c6ccc7c(c6)C(=O)N(C6CCC(=O)NC6=O)C7=O)CC5)CC4)cc3)CC2)cc1Cl (stereo partly shown)
5. CN(c1ccc(C#N)c(Cl)c1)[C@H]1CC[C@H](NC(=O)c2ccc(N3CCN(C4CCN(c5ccc6c(c5)C(=O)N(C5CCC(=O)NC5=O)C6=O)CC4)CC3)cc2)CC1 (stereo partly shown)
6. CN(c1ccc(C#N)c(Cl)c1)[C@H]1CC[C@H](NC(=O)c2ccc(N3CC(N4CCN(c5ccc6c(c5)C(=O)N(C5CCC(=O)NC5=O)C6=O)CC4)C3)cc2)CC1 (stereo partly shown)

Output line:
[3811, 1111, 737.5, 2154, 3001, 8637]

Reported AUC(0-t) ( CN(c1ccc(C#N)c(Cl)c1)[C@H]1CC[C@H](NC(=O)c2ccc(N3CC(CN4CCN(c5ccc6c(c5)C(=O)N(C5CCC(=O)NC5=O)C6=O)CC4)C3)cc2)CC1 (stereo partly shown) ) = 1134

These data points were gathered from patent US20230233690A1.
